# Test system: MCF7
# method-notes: Cytotoxicity against human MCF7 cells assessed as decrease in cell viability after 72 hrs by CellTiter-Glo luminescence assay
# Type: functional, cell-based
# experimental-context: MCF7, 72 h
I'd appreciate it if you could supply IC50 values for the items below.

1. COc1cc2cc(CO)c3c(c2cc1OC)CC1CCCN1C3 (racemic) :: > 10 µM
2. CC(=O)O[C@H]1C(=O)[C@@]2(C)[C@H]([C@H](OC(=O)c3ccccc3)[C@]3(O)C[C@H](OC(=O)[C@H](O)[C@@H](NC(=O)c4ccccc4)c4ccccc4)C(C)=C1C3(C)C)[C@]1(OC(C)=O)CO[C@@H]1C[C@@H]2O :: 0.0088 µM
3. COc1cc2c3c(c4ccc(OC)c(Cl)c4c2cc1OC)CN1CCCC1C3 (racemic) :: 0.91 µM
4. COc1cc2cc([C@@H]3[C@@H](C(C)=O)[C@H](C(C)=O)[C@@H]3c3cc4cc(OC)c(OC)cc4c4c3CN3CCC[C@@H]3C4)c3c(c2cc1OC)C[C@@H]1CCCN1C3 :: > 10 µM
5. COc1cc2cc(C3C(C(C)=O)C(C(C)=O)C3c3cc4cc(OC)c(OC)cc4c4c3CN3CCCC3C4)c3c(c2cc1OC)CC1CCCN1C3 (racemic) :: > 10 µM

Consider now this further compound.
# compound COc1cc2cc([C@@H]3[C@H](C(C)=O)[C@@H](C(C)=O)[C@@H]3c3cc4cc(OC)c(OC)cc4c4c3CN3CCC[C@@H]3C4)c3c(c2cc1OC)C[C@@H]1CCCN1C3 ; its IC50 = > 10 µM
